- experimental-target: GST-ARV1 (full-length ARV1) (Homo sapiens, UniProt Q9H2C2)
- Construct: Expresses full length ARV1; made in house; host or cells: E. coli BL21 (pGEX-4T1)
- Sequence (Q9H2C2 whole entry): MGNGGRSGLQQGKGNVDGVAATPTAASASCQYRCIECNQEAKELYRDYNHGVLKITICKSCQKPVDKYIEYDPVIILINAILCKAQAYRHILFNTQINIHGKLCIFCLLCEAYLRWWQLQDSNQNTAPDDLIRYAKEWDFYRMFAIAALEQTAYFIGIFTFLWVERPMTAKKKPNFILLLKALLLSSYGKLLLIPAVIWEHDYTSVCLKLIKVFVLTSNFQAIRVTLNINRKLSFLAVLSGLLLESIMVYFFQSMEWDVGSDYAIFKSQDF
- protocol-details: Lipid overlay far western
- Assay type: binding
- cond: lipid-embedded membrane strips, incl. sphingolipid strip
- Description: Lipid overlays were blocked in TBST-BSA (100 mM Tris–HCl buffer, pH 7.5, 150 mM NaCl, 0.5% Tween 20, 3% bovine serum albumin) for 1 h and subsequently washed eight separate times with TBST for 2 min each. […] Overlays were visualized using Immobilon Western Chemiluminescent horseradish peroxidase substrate and protein–lipid interaction was detected using a GE ImageQuant LAS 3000 imager.
readout-name: lipid-protein interaction

CCCCCC(=O)O[C@H](COC(=O)CCCCCNC(=O)CCCC[C@@H]1SC[C@@H]2NC(=O)N[C@@H]21)COP(=O)(O)O[C@H]1[C@H](O)[C@@H](O)[C@H](OP(=O)(O)O)[C@@H](O)[C@H]1O [reference compound] :: weakly
CCCCCCCC/C=C\CCCCCCCC(=O)OC[C@H](COP(=O)(O)OCC(O)CO)OC(=O)CCCCCCC/C=C\CCCCCCCC (stereo partly drawn) [PG, phosphatidylglycerol] :: weakly
CCCCCCCCCCCCC/C=C/[C@@H](O)[C@@H](N)COP(=O)(O)O [sphingosine-1-phosphate] :: not
CCCCCCCCCCCCC/C=C/[C@@H](O)[C@@H](N)CO [sphingosine] :: not

Attribution: paper PMC11952846
